The measurements presented in this section are drawn from patent US8765959B2.

# Measured Target: human ACC2 (Homo sapiens, UniProt O00763)
# Construct: made in house; host or cells: insect cells (baculoviral expression system)
# Sequence (O00763 129-2458 limits assumed): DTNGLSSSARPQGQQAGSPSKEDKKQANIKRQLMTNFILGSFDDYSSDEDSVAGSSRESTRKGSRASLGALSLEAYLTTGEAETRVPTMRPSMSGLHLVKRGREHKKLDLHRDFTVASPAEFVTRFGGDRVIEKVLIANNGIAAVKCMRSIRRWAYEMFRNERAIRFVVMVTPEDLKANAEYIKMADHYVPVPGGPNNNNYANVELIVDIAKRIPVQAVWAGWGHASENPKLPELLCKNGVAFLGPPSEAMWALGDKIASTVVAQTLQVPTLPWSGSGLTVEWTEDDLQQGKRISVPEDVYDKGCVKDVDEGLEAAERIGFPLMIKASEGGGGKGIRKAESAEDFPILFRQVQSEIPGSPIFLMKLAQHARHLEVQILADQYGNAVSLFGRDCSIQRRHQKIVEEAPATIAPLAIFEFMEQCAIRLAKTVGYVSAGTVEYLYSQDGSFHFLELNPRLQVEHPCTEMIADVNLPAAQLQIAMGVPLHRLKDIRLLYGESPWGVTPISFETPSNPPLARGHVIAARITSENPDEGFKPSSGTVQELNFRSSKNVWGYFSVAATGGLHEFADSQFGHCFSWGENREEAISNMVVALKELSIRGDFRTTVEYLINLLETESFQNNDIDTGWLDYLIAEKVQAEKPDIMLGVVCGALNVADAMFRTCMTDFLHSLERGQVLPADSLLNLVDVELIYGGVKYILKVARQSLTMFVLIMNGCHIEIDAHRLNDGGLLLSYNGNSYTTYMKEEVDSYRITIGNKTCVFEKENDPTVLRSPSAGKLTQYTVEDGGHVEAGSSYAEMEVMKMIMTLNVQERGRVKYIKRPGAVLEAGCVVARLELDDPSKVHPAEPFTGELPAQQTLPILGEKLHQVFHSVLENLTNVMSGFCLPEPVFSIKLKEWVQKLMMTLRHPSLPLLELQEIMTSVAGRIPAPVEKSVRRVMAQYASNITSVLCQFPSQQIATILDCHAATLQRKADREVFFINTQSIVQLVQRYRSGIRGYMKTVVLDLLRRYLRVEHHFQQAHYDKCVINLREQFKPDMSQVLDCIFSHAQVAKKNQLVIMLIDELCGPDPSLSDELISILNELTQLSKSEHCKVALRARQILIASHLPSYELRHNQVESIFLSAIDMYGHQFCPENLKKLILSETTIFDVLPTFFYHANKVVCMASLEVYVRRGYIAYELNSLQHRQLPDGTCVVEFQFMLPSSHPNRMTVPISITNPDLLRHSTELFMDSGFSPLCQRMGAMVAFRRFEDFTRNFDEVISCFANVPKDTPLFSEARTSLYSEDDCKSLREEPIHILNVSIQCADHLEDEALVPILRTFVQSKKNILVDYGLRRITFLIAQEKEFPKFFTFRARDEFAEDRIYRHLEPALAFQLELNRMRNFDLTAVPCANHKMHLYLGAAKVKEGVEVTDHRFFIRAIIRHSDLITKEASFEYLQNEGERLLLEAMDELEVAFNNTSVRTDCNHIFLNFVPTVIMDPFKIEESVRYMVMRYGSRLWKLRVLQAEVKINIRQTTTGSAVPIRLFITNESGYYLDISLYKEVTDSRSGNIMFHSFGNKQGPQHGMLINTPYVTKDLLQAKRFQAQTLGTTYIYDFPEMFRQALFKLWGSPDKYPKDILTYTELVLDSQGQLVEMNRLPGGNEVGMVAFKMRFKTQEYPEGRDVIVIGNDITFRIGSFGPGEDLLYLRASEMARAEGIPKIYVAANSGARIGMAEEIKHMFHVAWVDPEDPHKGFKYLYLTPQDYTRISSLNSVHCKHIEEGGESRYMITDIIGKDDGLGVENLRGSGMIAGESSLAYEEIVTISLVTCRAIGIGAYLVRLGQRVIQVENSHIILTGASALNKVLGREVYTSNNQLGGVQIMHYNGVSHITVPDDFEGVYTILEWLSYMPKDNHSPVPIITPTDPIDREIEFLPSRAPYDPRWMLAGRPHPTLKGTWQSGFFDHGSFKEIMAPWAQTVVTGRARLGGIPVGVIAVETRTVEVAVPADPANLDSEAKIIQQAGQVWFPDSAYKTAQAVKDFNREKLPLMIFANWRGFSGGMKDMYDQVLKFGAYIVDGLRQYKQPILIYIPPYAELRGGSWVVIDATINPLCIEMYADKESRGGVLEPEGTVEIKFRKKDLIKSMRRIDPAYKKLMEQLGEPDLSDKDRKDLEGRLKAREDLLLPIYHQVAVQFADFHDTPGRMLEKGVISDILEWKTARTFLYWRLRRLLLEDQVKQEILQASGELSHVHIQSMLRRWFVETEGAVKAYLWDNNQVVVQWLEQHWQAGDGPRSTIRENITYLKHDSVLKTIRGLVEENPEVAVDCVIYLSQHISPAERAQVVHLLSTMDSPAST
# Protocol Text: ACC2 assay, spectrophotometric 384 well assay (NADH-linked, coupled lactate dehydrogenase/pyruvate kinase)
# Format: biochemical
# Experimental Context: ACC2 assay; human ACC2 construct lacking 128 N-terminal amino acids; 25° C., 340 nm, 15 minutes; read-out: IC50
Property Name: pIC50
The read-out pIC50 is expressed as -log10 of concentration in moles per litre.

Answered cases to consult:
CCOc1ccc(C2CCN(c3ccc([C@H](C)NC(=O)N(C)CC)cc3)CC2)cc1 | 5.70
CCOc1cc(C2CCN(c3ccc([C@H](C)NC(C)=O)cc3)CC2)ccn1 | 6.09

Per the records, this compound ( "CCOc1ccc(C2CCN(c3ccc([C@H](C)N(C)C(C)=O)cc3)CC2)cc1" ) has pIC50 equal to 5.46

Lookup result for "CCOc1ccc(C2CCN(c3ccc([C@H](C)NC(=O)C4CC4)cc3)CC2)cc1" ; measured pIC50: 6.17

----------
# Measured Target: human ACC2 (Homo sapiens, UniProt O00763)
# Construct: made in house; host or cells: insect cells (baculoviral expression system)
# Protocol Text: ACC2 assay, spectrophotometric 384 well assay (NADH-linked, coupled lactate dehydrogenase/pyruvate kinase)
# Format: biochemical
# Experimental Context: ACC2 assay; human ACC2 construct lacking 128 N-terminal amino acids; 25° C., 340 nm, 15 minutes; read-out: IC50
Property Name: IC50 (nM)
Field format: number, assumed nM, no unit text.

Example results:
CC(=O)NC(C)c1ccc(N2CCC(c3ccc(OCC4CC4)cc3F)CC2)cc1F (stereo not shown) [Example 1.48] | 460
CCOc1ccc(C2CCN(c3ccc([C@H](C)NC(=O)c4cncs4)cc3)CC2)cc1 [Example 2.2] | 690

get_value(item= C[C@H](NC(=O)N(C)C)c1ccc(N2CCC(c3ccc(OC4CCC4)cc3)CC2)cc1 [Example 1.22] , readout=IC50) returns 250

# molecule COc1ccc(C2CCN(c3ccc(CC(C)NC(C)=O)cc3)CC2)cc1 (stereo not shown) [Example 1.61] ; its IC50 = 4470

----------
# Measured Target: human ACC2 (Homo sapiens)
# Construct: made in house; host or cells: insect cells (baculoviral expression system)
# Protocol Text: ACC2 assay, spectrophotometric 384 well assay (NADH-linked, coupled lactate dehydrogenase/pyruvate kinase)
# Type: biochemical
# Experimental Context: ACC2 assay; human ACC2 construct lacking 128 N-terminal amino acids; 25° C., 340 nm, 15 minutes; read-out: IC50
Property Name: IC50

Example compounds with recorded IC50:
CCOc1ccc(C2CCN(c3ccc([C@H](C)NC(=O)CSC)cc3)CC2)cc1 | 1210 nM
CCCOc1cccc(C2CCN(c3ccc([C@H](C)NC(C)=O)cc3)CC2)c1 | 660 nM
CCOc1ccc(C2CCN(c3ccc([C@H](C)NC(=O)N(C)c4cccnc4)cc3)CC2)cc1 | 1160 nM

Note to self: IC50 recorded for "CC(=O)N[C@@H](C)c1ccc(N2CCC(c3cccc(OCC4CC4)c3)CC2)cc1" was 880 nM

----------
# Measured Target: human ACC2 (Homo sapiens, UniProt O00763)
# Construct: made in house; host or cells: insect cells (baculoviral expression system)
# Protocol Text: ACC2 assay, spectrophotometric 384 well assay (NADH-linked, coupled lactate dehydrogenase/pyruvate kinase)
# Format: biochemical
# Experimental Context: ACC2 assay; human ACC2 construct lacking 128 N-terminal amino acids; 25° C., 340 nm, 15 minutes; read-out: IC50
Property Name: IC50 (nM)
Your answer should be a plain number; it is taken to be in nM.

CCOc1ccc(C2CCN(c3ccc([C@H](C)NC(=O)c4csc(NC(C)=O)n4)cc3)CC2)cc1 [Example 3.7] | 1480
CC(C)Oc1ccc(C2CCN(c3ccc([C@H](C)NC(=O)C4CC4)cc3)CC2)cc1 [Example 1.10] | 800
CCOc1cccc(C2CCN(c3ccc(C(C)NC(C)=O)c(F)c3)CC2)c1 (stereo not shown) [Example 1.41] | 1270
CCOc1ccc(C2CCN(c3ccc([C@H](C)NC(=O)N(C)C)cc3)CC2)cc1 [Example 1.17] | 820
CCOc1ccc(C2CCN(c3ccc([C@H](C)NC(=O)C(C)F)cc3)CC2)cc1 (stereo partly shown) [Example 3.3] | 760
CCOc1cccc(C2CCN(c3ccc([C@H](C)NC(C)=O)cc3)CC2)c1 [Example 1.6] | 1120
CCOc1ccc(C2CCN(c3ccc(CC(C)NC(C)=O)cc3)CC2)cc1 (stereo not shown) [Example 1.60] | 1220
C[C@H](NC(=O)C1CC1)c1ccc(N2CCC(c3ccc(OC4CCC4)cc3)CC2)cc1 [Example 1.16] | 1240

# IC50 of CC(=O)NC(C)c1ccc(N2CCC(c3cccc(OC(C)C)c3)CC2)cc1F (stereo not shown) [Example 1.42] = 1260

Reported IC50 of CCOc1ccc(C2CCN(c3ccc([C@H](C)NC(=O)CC)cc3)CC2)cc1 [Example 2.4] : 710
